molecular target: Troponin I, cardiac muscle (Homo sapiens) + Troponin T, cardiac muscle (Homo sapiens) + Troponin C, slow skeletal and cardiac muscles (Homo sapiens) (UniProt P19429+P45379+P63316); assay: cardiac RTF calcium sensitivity activators, confirmation, biochemical, IANBD-TnC fluorescence, triplicate (AID 504383); conditions: IANBD-labeled cardiac RTF, Ca2+ sensitivity fluorescence; at 7.2 µM; scaled from EC20 to saturating calcium; tested at EC20 calcium, 0.472 mM;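 also: 0% = DMSO at 0.472 mM calcium and 100% = DMSO at 2.9 mM calcium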
About 1,200 (48%) of roughly 2,500 compounds were called active.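 The calls were made as follows: active = mean activation above the low control average plus 3 SD, as set in the primary screen (cut at about 12% in these data); inactive = the rest.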 The set was probably picked from earlier hits. Some of the results follow.
Outcome field: choose from TRUE for active, FALSE for inactive

Record excerpt, results attached:
- Structure smiles: "C=CCN1C(=O)/C(=C/c2ccc(O)c(OC)c2)S/C1=N/c1nccs1"
  Group: "FALSE"
- Structure smiles: "COc1cc(OC)c(OC)cc1/C=C/C(=O)c1ccc(NS(=O)(=O)c2ccc(C)cc2)cc1"
  Group: "FALSE"

Now look at this entry.
Incoming: Which outcome was assigned to COc1ccc(/C=C2/SC(c3ccc(C)cc3)=NC2=O)cc1OC in this test?
Outgoing: TRUE

###

target: Troponin I, cardiac muscle (Homo sapiens) + Troponin T, cardiac muscle (Homo sapiens) + Troponin C, slow skeletal and cardiac muscles (Homo sapiens) (UniProt P19429+P45379+P63316); assay: cardiac RTF calcium sensitivity activators, confirmation, biochemical, IANBD-TnC fluorescence, triplicate (AID 504383); details: IANBD-labeled cardiac RTF, Ca2+ sensitivity fluorescence; at 7.2 µM; scaled from EC20 to saturating calcium; tested at EC20 calcium, 0.472 mM;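 also: 0% = DMSO at 0.472 mM calcium and 100% = DMSO at 2.9 mM calcium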
Hit rate of the full screen: of about 2,500 compounds, about 1,200 (48%) were called active.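 The calls were made as follows: active = mean activation above the low control average plus 3 SD, as set in the primary screen (cut at about 12% in these data); inactive = the rest.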 The set was probably picked from earlier hits. This is one part of the list.
Outcome field: choose from label 1 = active, label 0 = inactive

Record excerpt, results attached:
- Compound: "COC(=O)CNC(=O)COC(=O)c1cc(F)c(F)cc1Cl"
  Group: "label 0"
- Compound: "C=C1C(=O)O[C@@]23[C@H]1CC[C@@H](C)[C@@H]2CC[C@@]1(C)O[C@@H]31"
  Group: "label 1"
- Compound: "O=C(O)CN1C(=O)/C(=C\\c2cn(CC(=O)N3CCOCC3)c3ccccc23)SC1=S"
  Group: "label 1"
- Compound: "O=C(CCN1C(=O)/C(=C/c2ccccc2)SC1=S)NNC(=O)c1cccnc1"
  Group: "label 0"
- Compound: "COc1cc([N+](=O)[O-])ccc1NC(=O)COC(=O)c1n[nH]c2ccccc12"
  Group: "label 0"

Incoming: Which outcome was assigned to NC(=O)c1c(Nc2nc3c(F)cccc3s2)sc2c1CCCC2 in this test?
Outgoing: label 0

Incoming: Which outcome was assigned to C[C@H](O)C(=O)C1=Nc2c(nc(N)[nH]c2=O)NC1 in this test?
Outgoing: label 0

Incoming: Which outcome was assigned to CC(Oc1ccc(F)cc1)C(=O)Nc1sc2c(c1C(=O)NCc1cccnc1)CCCC2 (centres undefined) in this test?
Outgoing: label 1

Incoming: Which outcome was assigned to O=C(c1ccccc1)N1CCN(CC#CC2(O)CCCCC2)CC1 in this test?
Outgoing: label 0

Incoming: Which outcome was assigned to O=C(CS(=O)(=O)c1cn(Cc2ccc(F)cc2)c2ccccc12)N1CCOCC1 in this test?
Outgoing: label 0

Incoming: Which outcome was assigned to COC(=O)C1=C(C)NC(=O)/C1=C\N(C)C in this test?
Outgoing: label 1

Incoming: Which outcome was assigned to C/C(=N/NC(=O)c1ccncc1)c1cc2ccc(O)cc2oc1=O in this test?
Outgoing: label 0

Incoming: Which outcome was assigned to COc1cccc2cc(-c3nc(-c4cccs4)cs3)c(=O)oc12 in this test?
Outgoing: label 0

Incoming: Which outcome was assigned to Cc1ccc(N=C2NC(=O)/C(=C/c3cn(C)c4ccccc34)S2)cc1C in this test?
Outgoing: label 0
